- experimental.system: M7
- assay.overview: ELISA on coated antigen, column M7
measurement.kind: absorbance at 490 nm
In your answer, state the number alone without any accompanying words.

binder	absorbance at 490 nm
PDL1-23E5 (antibody, V domains shown, Only FR/CDR pieces are tied to the clone) VH: QVQLVQSGAEVVKPGSSVKVSCKASGDTFSRYAISWVRQAPGQAPEWMGRIIPVLGAANYARKFQDRVTITADISTTTAFMELTSLRSEDTAVYYCARSLSGYSLGAFDVWGPGTLVTVSS VL: QLVLTQPPSVSGAPGQSVSISCIGSNSNIGTPYDVHWYQQIPGEAPKLLIYGSTNRPSGVPDRFSGSRSGSSASLDITGLQADDEAYYYCQSYDRSLGVSDVVFGGGTKLTVL	2.6

Supply reported absorbance at 490 nm belonging to this binder: PDL1-31D9 (antibody, V domains shown, Only FR/CDR pieces are tied to the clone) VH: QMQLVESGGGLVQPGGSLRLSCSASGFTFSSYVMHWVRQAPGKGLEYVSAISSNGGSTYYADSVKGRFTISRDNSKNTLYLQMSSLRSEDTAVYYCAREHFSTYSYGVDVWGPGTTVTVSS VL: DIVMTQTPLSLPVTPGEPASISCRSSQSLLDSDDGNTYLDWYLQKPGQSPQLLIYMISFRASGVPDRFSGSGSGTDFTLKISRVEAEDSGIYYCMQRVEFPYTFGQGTKLEIK
1.9

Supply reported absorbance at 490 nm belonging to this binder: PDL1-16E12 (antibody, V domains shown, Only FR/CDR pieces are tied to the clone; also called parent antibody) VH: QMQLVQSGAEVKKPGSSVKVSCKASGGTFSSYAISWVRQAPGQGLEWMGRIIPILGIANYAQKFQGRVTITADKSTSTAYMELSSLRSEDTAVYYCAKPRDGYNLVAFDIWGQGTMVTVSS VL: QLVLTQPPSVSGAPGQTVTISCTGSSSNIGAGYDVHWYQQLPGTAPKLLIYGNNNRPSGVPDRFSGSKSGALASLAITGLQAEDGADYHCQSYDNSLSAHAVFGTGTKVTVL
2.5

Taken from patent US20190322750A1.
